// data source = patent US20150368300A1

Measurement target: T1, GB1-AF9 (497-568) (human) (UniProt P42568)
T1 sequence: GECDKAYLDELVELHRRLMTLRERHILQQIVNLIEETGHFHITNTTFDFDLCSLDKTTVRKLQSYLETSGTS
Assay text: competitive FP; displacement of N-Flu-DOT1L from GB1-AF9
We begin with a simple list: items and their reported Ki.

{"Binder": "Ac-LPISIPLSTV-NH2 [DOT1L 10mer peptide, Ac-…-NH2 (a.a. 865-874)]", "Ki / nM": 68}
{"Binder": "Ac-LPISIPLSAV-NH2 [T873A, alanine mutated DOT1L 10mer peptide]", "Ki / nM": 203}
{"Binder": "Ac-LPISIPLSTVQPNKLP-NH2 [DOT1L 16 mer peptide, Ac-…-NH2 (a.a. 865-880)]", "Ki / nM": 80}
